Reference source: PubChem BioAssay (NCI)

Kindly state growth for each of the entries shown.
test system: SK-MEL-5 melanoma; assay: NCI-60 one-dose screen, 48 h (100 = growth as untreated, 0 = no growth, -100 = all killed); settings: 10 µM unless noted
Compounds without any hit were thinned out: in the full panel of roughly 83,000, 20% have a hit.
Give bare numbers, in %.

Solved cases below.
{"compound": "COc1cc(/C=C2\\C(=O)N(c3c(Cl)cccc3Cl)c3ccccc32)cc(OC)c1OCCCCCCn1c2ccccc2c(=O)c2ccccc21", "reportedResult": 96.1}
{"compound": "CCCCCCC(=O)Nc1ncc(Cc2ccc(C)cc2)s1", "reportedResult": 36.9}
{"compound": "C=C1C(=O)O[C@H]2[C@H]1CC/C(COC(=O)NCc1ccc(Cn3c(=O)sn(-c4ccc(OC)cc4)c3=O)cc1)=C\\CC[C@@]1(C)O[C@@H]21", "reportedResult": 97.9}
{"compound": "C=C1C(=O)O[C@H]2[C@H]1CC/C(COC(=O)NCCCCCCCCNC(=O)OC/C1=C/CC[C@@]3(C)O[C@H]3[C@H]3OC(=O)C(=C)[C@@H]3CC1)=C\\CC[C@@]1(C)O[C@@H]21", "reportedResult": -85.3}
{"compound": "COC(=O)C1=C(C(=O)Nc2cccnc2)C2OC1(C(Cc1ccccc1)Oc1ccccc1)C1OC21 (stereo not drawn)", "reportedResult": 107}
{"compound": "COc1ccc(C(c2cc(OC)c(OC)c(OC)c2)N2CCCC2)cc1 (stereo not drawn)", "reportedResult": 65.2}
{"compound": "CC/C=C1/C(=O)C=C[C@@H]1C/C=C\\CCCC(=O)OC", "reportedResult": 9.82}

Value lookup for growth; key = `COC1=CC(c2ccc[nH]2)=N/C1=C\c1[nH]c(C)c(CC(=O)OCc2ccccc2)c1C`
-91.5
